Items are presented alongside their recorded Minimal concentration causing complete inhibition of visible growth (MIC).
system: P. fluorescens; type: cell-based; settings: P. fluorescens (Gram-neg.); after three days; peptone-glucose agar; pH ~ 6.9-7.0
measured-parameter: Minimal concentration causing complete inhibition of visible growth (MIC)

{"columns": ["molecule", "target-or-test-system", "readout-value"],
 "data": [
  ["CCC[CH2][Sn]([CH2]CCC)([CH2]CCC)[CH2]CCO", "P. fluorescens", "> 1000 mg/L"],
  ["CCC[CH2][Sn]([CH2]CCC)([CH2]CCC)[CH2]CCC [Bu4 Sn, reference compound]", "P. fluorescens", "> 500 mg/L"],
  ["CCC[CH2][Sn]([CH2]CCC)([CH2]CCC)[CH2]CC(=O)OC", "P. fluorescens", "> 1000 mg/L"],
  ["CCC[CH2][Sn]([CH2]CCC)([CH2]CC[N+](C)(C)C)[CH2]CC[N+](C)(C)C.[I-].[I-] [Bu2 Sn[(CH2)3 NMe3 I]2]", "P. fluorescens", "> 1000 mg/L"]
]}

====

This listing pairs compounds with measured Minimal concentration causing complete inhibition of visible growth (MIC).
test system: Cladosporium cucumerinum; type: cell-based; conditions: after three days, glucose-agar, pH~6.9-7.0
measured-parameter: Minimal concentration causing complete inhibition of visible growth (MIC)

{"columns": ["compound", "readout-value"],
 "data": [
  ["CCC[CH2][Sn]([CH3])([Br])[CH2]CC[N+](C)(C)C.[I-] (stereo not drawn) [MeBuBrSn(CH2)3 NMe3 I, reference compound]", "> 500 mg/L"],
  ["CCC[CH2][Sn]([CH2]CCC)([CH2]CCC)[CH2]CCC [Bu4 Sn, reference compound]", "> 500 mg/L"],
  ["CCC[CH2][Sn]([CH2]CCC)([CH2]CCC)[CH2]CC(N)=O [Bu3 Sn(CH2)2 CONH2]", "≤ 10 mg/L"]
]}
